Kindly state TNF-Alfa for each of the entries shown.
- Tested on: PBL
- testDescription: ELISA of cytokine secretion by PBL stimulated once with peptide-pulsed DC
- Format: cell-based, human
- setupConditions: peptide DC ratio 16:1, one out of five experiments, six donors
No end group written: not given here.
State the answer as a number, implicitly in ng/mL.

MTPGTQSPFFLLLLLTVLTVV [ImMucin] yielded TNF-Alfa of 11.6

LLLLTVLTV [VXL-2, LLLLTVLTV] yielded TNF-Alfa of 0

TQSPFFLLL [VXL-4, TQSPFFLLL] yielded TNF-Alfa of 17.1

meta.source: patent US11179452B2
